assay_text: self-splicing fitness, log relative to wild type (ln ratio); higher = more splicing; Tetrahymena group I intron in knt gene, E. coli kanamycin selection, DiMSum; sequences stand for … in CUCUCU…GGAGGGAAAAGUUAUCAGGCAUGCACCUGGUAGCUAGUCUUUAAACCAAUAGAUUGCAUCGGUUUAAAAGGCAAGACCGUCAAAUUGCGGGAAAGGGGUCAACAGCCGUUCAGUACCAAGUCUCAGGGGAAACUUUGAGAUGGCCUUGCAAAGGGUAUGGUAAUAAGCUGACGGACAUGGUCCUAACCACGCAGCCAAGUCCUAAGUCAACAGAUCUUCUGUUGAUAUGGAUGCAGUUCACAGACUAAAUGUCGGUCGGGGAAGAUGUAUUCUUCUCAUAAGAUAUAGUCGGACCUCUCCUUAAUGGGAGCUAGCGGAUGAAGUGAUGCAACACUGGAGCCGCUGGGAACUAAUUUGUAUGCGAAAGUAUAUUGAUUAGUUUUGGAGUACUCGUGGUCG;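 further: selection with 25 µg/mL kanamycin versus none on LB agar overnight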
condition: 30 °C
Binary call on self-splicing fitness (ln): Condition met from -2 upward, Condition not met beneath that.

The following sequences have reported results that may help.
UCCCAGCAAUAUUACGCCAG    Condition not met
CAACAGCAAUAUUACGAGUA    Condition met
AUCUAGCAAUAUUACGGAGG    Condition met

Exam item: Hi, just wondering whether UCAGAGCAAUAUUACGUUGG shows self-splicing fitness (ln) of -2 or higher.
Marked response: Condition not met

Exam item: Hi, just wondering whether CUCGAGCAAUAUUACGACGU shows self-splicing fitness (ln) of -2 or higher.
Marked response: Condition not met

* * *

assay_text: self-splicing fitness, log relative to wild type (ln ratio); higher = more splicing; Tetrahymena group I intron in knt gene, E. coli kanamycin selection, DiMSum; sequences stand for … in CUCUCU…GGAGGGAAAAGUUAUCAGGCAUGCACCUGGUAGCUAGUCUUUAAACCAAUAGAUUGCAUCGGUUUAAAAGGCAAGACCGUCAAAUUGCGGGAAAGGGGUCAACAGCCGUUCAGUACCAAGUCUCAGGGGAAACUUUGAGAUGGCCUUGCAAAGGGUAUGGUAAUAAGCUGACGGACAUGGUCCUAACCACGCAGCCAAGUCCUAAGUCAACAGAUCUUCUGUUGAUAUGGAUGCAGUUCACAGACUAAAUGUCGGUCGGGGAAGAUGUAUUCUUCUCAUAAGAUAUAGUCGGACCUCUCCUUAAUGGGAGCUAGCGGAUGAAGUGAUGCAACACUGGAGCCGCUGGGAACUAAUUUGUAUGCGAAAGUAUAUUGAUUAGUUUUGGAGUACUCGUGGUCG
condition: 30 °C
experimental_readout: self-splicing fitness (ln)
Number, no unit, nothing else.

GUGAAGCAAUAUUACGAUCC    -3.08

Exam item: Could you please provide reported self-splicing fitness (ln) for ACAGAGCAAUAUUACGGGUG ? Thanks!
Marked response: -2.96

Exam item: Could you please provide reported self-splicing fitness (ln) for AUGGAGCAAUAUUACGUUAU ? Thanks!
Marked response: -2.96

Exam item: Could you please provide reported self-splicing fitness (ln) for AAGUAGCAAUAUUACGGGGU ? Thanks!
Marked response: -3.03

* * *

assay_text: self-splicing fitness, log relative to wild type (ln ratio); higher = more splicing; Tetrahymena group I intron in knt gene, E. coli kanamycin selection, DiMSum; sequences stand for … in CUCUCU…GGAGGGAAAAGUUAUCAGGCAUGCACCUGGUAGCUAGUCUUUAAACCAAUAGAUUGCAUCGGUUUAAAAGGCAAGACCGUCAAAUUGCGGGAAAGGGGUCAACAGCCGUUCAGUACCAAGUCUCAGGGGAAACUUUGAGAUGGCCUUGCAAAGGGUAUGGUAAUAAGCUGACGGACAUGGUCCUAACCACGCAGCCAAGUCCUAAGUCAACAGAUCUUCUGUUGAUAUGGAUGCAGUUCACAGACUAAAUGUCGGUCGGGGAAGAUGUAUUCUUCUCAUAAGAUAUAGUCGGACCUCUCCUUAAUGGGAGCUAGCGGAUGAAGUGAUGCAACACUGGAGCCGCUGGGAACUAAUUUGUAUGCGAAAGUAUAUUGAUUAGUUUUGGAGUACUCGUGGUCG
condition: 37 °C
Binary call on self-splicing fitness (ln): 1.0 from -1 upward, 0.0 beneath that.

The following sequences have reported results that may help.
ACUGAGCAAUAUUACGCACG    0.0
AGUCAGCAAUAUUACGCUCG    1.0
GUUAAGCAAUAUUACGGCUA    1.0

Exam item: Hi, just wondering whether CUCGAGCAAUAUUACGCGCC shows self-splicing fitness (ln) of -1 or higher.
Marked response: 0.0

Exam item: Hi, just wondering whether ACGAAGCAAUAUUACGUAUG shows self-splicing fitness (ln) of -1 or higher.
Marked response: 0.0

Exam item: Hi, just wondering whether AUUAAGCAAUAUUACGGCGA shows self-splicing fitness (ln) of -1 or higher.
Marked response: 1.0

Exam item: Hi, just wondering whether UGGUAGCAAUAUUACGGCCG shows self-splicing fitness (ln) of -1 or higher.
Marked response: 1.0

Exam item: Hi, just wondering whether AUCAAGCAAUAUUACGGUAU shows self-splicing fitness (ln) of -1 or higher.
Marked response: 1.0

Exam item: Hi, just wondering whether CAUCAGCAAUAUUACGUAUA shows self-splicing fitness (ln) of -1 or higher.
Marked response: 1.0

Exam item: Hi, just wondering whether AUUCAGCAAUAUUACGCCAU shows self-splicing fitness (ln) of -1 or higher.
Marked response: 0.0

Exam item: Hi, just wondering whether GUUGAGCAAUAUUACGUUUA shows self-splicing fitness (ln) of -1 or higher.
Marked response: 0.0

Exam item: Hi, just wondering whether CAUAAGCAAUAUUACGACAC shows self-splicing fitness (ln) of -1 or higher.
Marked response: 0.0

Exam item: Hi, just wondering whether AGGCAGCAAUAUUACGUACC shows self-splicing fitness (ln) of -1 or higher.
Marked response: 1.0

Exam item: Hi, just wondering whether AGCAAGCAAUAUUACGAGGG shows self-splicing fitness (ln) of -1 or higher.
Marked response: 0.0

Exam item: Hi, just wondering whether CCGUAGCAAUAUUACGCCAU shows self-splicing fitness (ln) of -1 or higher.
Marked response: 0.0

Exam item: Hi, just wondering whether GGAGAGCAAUAUUACGGACG shows self-splicing fitness (ln) of -1 or higher.
Marked response: 0.0

Exam item: Hi, just wondering whether UGGUAGCAAUAUUACGAACC shows self-splicing fitness (ln) of -1 or higher.
Marked response: 0.0

Exam item: Hi, just wondering whether AGCAAGCAAUAUUACGUGCG shows self-splicing fitness (ln) of -1 or higher.
Marked response: 0.0

Exam item: Hi, just wondering whether AAGCAGCAAUAUUACGGACC shows self-splicing fitness (ln) of -1 or higher.
Marked response: 1.0
